B1: ZNF649 (parent)
chain: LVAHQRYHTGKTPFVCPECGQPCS

Variants of: B1
Test: protein stability index of a GFP-peptide fusion (GPS, HEK-293T) (PSI 1-6); higher = more stable;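 further: lentivirally expressed fusions sorted by FACS into six bins by GFP to DsRed ratio, PSI derived from sequencing read proportions per bin multiplied by bin number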
Settings: c terminus: a fixed tail appended
I would appreciate it if you labelled entries T when protein stability index is 3 or higher, otherwise F.

>>> print(df.to_string())
    mutations  category
 0        H8N         T
 1       P13L         F
 2        A3M         F
 3        H8Q         T
 4       Q21V         T
 5        Q5D         T
 6       S24Q         T
 7       G10A         T
 8       P13Y         T
 9        T9Q         T
10        H4G         T
11       K11V         T
12        R6M         T
13        V2G         T
14        T9E         T
15       C23F         F
16       V15E         T
17        A3E         T
18        H8W         F
19       V15F         F
20       P13N         T
